# target_desc: Recombinant human KIF18A (1-467 His-tagged) protein (Homo sapiens, UniProt Q8NI77)
# Construct: Recombinant human KIF18A (1-467 His-tagged) protein; His
# Sequence (Q8NI77 1-467): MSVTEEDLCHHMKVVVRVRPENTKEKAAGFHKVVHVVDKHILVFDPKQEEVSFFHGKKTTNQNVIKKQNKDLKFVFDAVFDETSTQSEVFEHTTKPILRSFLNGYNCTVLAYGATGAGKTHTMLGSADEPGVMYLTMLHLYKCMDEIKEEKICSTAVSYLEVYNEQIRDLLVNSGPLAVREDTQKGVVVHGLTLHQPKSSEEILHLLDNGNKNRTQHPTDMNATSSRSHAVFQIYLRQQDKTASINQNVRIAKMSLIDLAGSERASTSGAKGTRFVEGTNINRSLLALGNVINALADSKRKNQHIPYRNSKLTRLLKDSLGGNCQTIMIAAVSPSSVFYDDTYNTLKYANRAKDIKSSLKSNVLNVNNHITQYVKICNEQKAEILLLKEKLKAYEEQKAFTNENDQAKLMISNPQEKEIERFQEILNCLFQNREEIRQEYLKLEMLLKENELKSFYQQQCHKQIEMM
# Sequence (P02550 whole entry partner): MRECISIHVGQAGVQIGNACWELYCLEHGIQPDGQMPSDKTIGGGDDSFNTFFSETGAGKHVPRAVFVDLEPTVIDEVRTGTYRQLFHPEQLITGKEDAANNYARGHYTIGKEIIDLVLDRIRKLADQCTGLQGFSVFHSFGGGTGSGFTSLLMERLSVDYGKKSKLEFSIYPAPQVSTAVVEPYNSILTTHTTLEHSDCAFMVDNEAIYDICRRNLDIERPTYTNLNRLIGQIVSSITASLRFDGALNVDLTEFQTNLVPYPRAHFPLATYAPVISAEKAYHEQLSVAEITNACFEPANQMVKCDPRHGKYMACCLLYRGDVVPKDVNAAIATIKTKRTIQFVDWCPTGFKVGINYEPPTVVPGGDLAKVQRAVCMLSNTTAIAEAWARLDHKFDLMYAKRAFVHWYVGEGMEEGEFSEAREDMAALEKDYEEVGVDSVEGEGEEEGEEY
# Sequence (P02554 whole entry partner): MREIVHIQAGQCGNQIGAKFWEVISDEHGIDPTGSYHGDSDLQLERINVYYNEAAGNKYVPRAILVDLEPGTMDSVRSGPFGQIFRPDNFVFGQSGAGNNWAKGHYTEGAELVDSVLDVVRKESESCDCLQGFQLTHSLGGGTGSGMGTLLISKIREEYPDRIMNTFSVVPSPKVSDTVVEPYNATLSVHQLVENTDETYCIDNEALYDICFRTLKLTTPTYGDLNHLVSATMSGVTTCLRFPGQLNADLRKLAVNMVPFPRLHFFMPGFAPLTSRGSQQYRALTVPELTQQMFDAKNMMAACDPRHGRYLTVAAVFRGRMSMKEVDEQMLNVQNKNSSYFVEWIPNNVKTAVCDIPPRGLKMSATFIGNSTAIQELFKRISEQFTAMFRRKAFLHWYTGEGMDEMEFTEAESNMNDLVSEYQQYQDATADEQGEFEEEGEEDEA
# assay_remarks: KIF18A Enzyme Assay: microtubule-stimulated ATPase activity (ADP-Glo)
# condition_description: 30 nM KIF18A, 75 μM ATP
pIC50: −log10 of the molar value.
Where pIC50 equals or exceeds 7, the correct label is True; where it does not, the label is False.

{"structure_notation": "O=C(Nc1cccc(S(=O)(=O)N2CCC(F)(F)C2)c1)c1cccnc1N1CCC2(CC1)CC2", "answer_label": "False"}
{"structure_notation": "Cc1ccc(NC(=O)c2ccc(NC(C)(C)CO)nc2N2CCC3(CC2)CC3)cc1S(=O)(=O)C1CCCC1", "answer_label": "True"}
{"structure_notation": "O=C(Nc1cccc(S(=O)(=O)C2CCCC2)c1)c1ccc(N2CCOCC2)nc1N1CCC2(CCC2)CC1", "answer_label": "False"}
{"structure_notation": "CC(C)(CO)Nc1ccc(C(=O)Nc2cccc(N3CCCC3)c2)c(N2CCC3(CC2)CC3)n1", "answer_label": "False"}
{"structure_notation": "Cc1ccc(NC(=O)c2cccnc2N2CCC3(CC2)CC3)cc1S(=O)(=O)C1CCCC1", "answer_label": "False"}
{"structure_notation": "Cc1ccc(NC(=O)c2ccc(NC(C)(C)CO)nc2N2CCC3(CC2)CC3)cc1N1CCOCC1", "answer_label": "False"}
{"structure_notation": "O=C(Nc1cccc(S(=O)(=O)NC2CC2)c1)c1ccc(NC2(CO)CC2)nc1N1CCC2(CC1)CC2", "answer_label": "False"}
{"structure_notation": "Cc1ccc(NC(=O)c2ccc(NC(C)(C)CO)nc2N2CCC3(CC2)CC3)cc1-c1ccccn1", "answer_label": "False"}

# ---- query compound ----
Does "CC(C)(CO)Nc1ccc(C(=O)Nc2cccc(N3CCOCC3)c2)c(N2CCC3(CC2)CC3)n1" have a reported pIC50 of at least 7?
False
